Test system: LOX IMVI melanoma
Assay: NCI tumour cell line growth inhibition, 48 h
Each entry below lists one item and its recorded TGI value.
Value expressed in nM; do not type the unit.

## Task Please give measured TGI of the following entry: CCCCCCCCC/C=C/C=C/C(=O)NCC(=O)NC1C(O)C(O)C(Nc2ncnc3nc[nH]c23)OC1C(O)CO (stereo not given)
## Result 39.6

## Task Please give measured TGI of the following entry: CN[C@H](C#Cc1c(F)ccc2c1/C(=C/c1[nH]ccc1OC)C(=O)N2)CO
## Result 2540

====

System: SNB-19 CNS
Experiment: NCI tumour cell line growth inhibition, 48 h
METRIC: TGI

O=c1ccn([C@@H]2C[C@@H]2CO)c(=O)[nH]1 :: > 100 µM

## Task Please give measured TGI of the following entry: Cc1cccc(CP(Cc2cccc(C)c2)CC2(Cp3c4ccccc4c4ccccc43)COC2)c1
## Result > 31.6 µM

## Task Please give measured TGI of the following entry: COc1cc([C@@H]2c3cc4c(cc3[C@@H](OC(=O)c3ccc(N)cc3)C3COC(=O)[C@@H]32)OCO4)cc(OC)c1O (some centres undefined)
## Result > 95 µM

## Task Please give measured TGI of the following entry: C[C@H](NC(=O)c1ccc(CNC(=O)/C=C/c2cccc(Oc3ccccc3)c2)cc1)c1ccccc1
## Result > 100 µM

## Task Please give measured TGI of the following entry: Nc1ccc2c(SCc3ccc([N+](=O)[O-])cc3)c3ccccc3nc2c1
## Result 59.1 µM

## Task Please give measured TGI of the following entry: O=c1[nH]nc(NNc2ccccc2)c2nnn(C3CCCCC3)c12
## Result > 100 µM

## Task Please give measured TGI of the following entry: C1COCCN1.C1COCCN1.NC1CCCCC1N.[Cl-].[Pt+2] (centres undefined)
## Result > 100 µM

## Task Please give measured TGI of the following entry: C=CCC1(OC(C)=O)C2OC(=O)C1(O)OCC2O (centres undefined)
## Result > 100 µM
